Tested on: wild oat
experiment: Test C pre-/postemergence test
Assay type: in vivo, Avena fatua
test.conditions: Preemergence, 250 g ai/ha
Below, each entry is listed with its recorded Plant response rating (0 to 100), Oat, Wild.
Number, no unit, nothing else.

A selection of reference data follows.
• Cc1cc[n+]([O-])c(S(=O)(=O)C(C)c2c(C(F)(F)F)nn(C)c2OC(F)F)c1 (centres unmarked) = 80
• Cn1nc(C(F)(F)F)c(C[S+]([O-])c2cccc[n+]2[O-])c1OC(F)F (centres unmarked) = 100
• Cn1nc(C(F)(F)F)c(C(Cl)S(=O)(=O)c2cccc[n+]2[O-])c1Cl (centres unmarked) = 0

Ask: Find the recorded Plant response rating (0 to 100), Oat, Wild belonging to `Cc1cc[n+]([O-])c(S(=O)(=O)Cc2c(C(F)(F)F)nn(C)c2OC(F)F)c1` and report it.
Result: 95

Ask: CC(c1c(C(F)(F)F)nn(C)c1Cl)S(=O)(=O)c1cccc[n+]1[O-] (centres unmarked) , same question.
Result: 65
